test system: NCI-H211 tumor spheroids, viability percent test/control; test: Anticancer human tumor NCI-H211 cell line growth inhibition; details: second compound 0.003 µM; first compound 0.1 µM; active compounds read low; spheroids with HUVEC and MSC;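 further: spheroids exposed to agents for seven days before readout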
Assignment: determine reported viability, T/C for the given molecules.
The figure you give is taken to be in %; do not add the unit.

Query block: GET /values?readout=viability, T/C&system=NCI-H211 tumor spheroids, viability percent test/control&item= Cc1cc(C)c(CNC(=O)c2cc(-c3ccc(CN4CCOCC4)cc3)cc3c2cnn3C2CCCC2)c(=O)[nH]1 + CC[C@@]1(O)C(=O)OCc2c1cc1n(c2=O)Cc2cc3c(CN(C)C)c(O)ccc3nc2-1
Result block: 78.6

Query block: Lab request: please report viability, T/C under test system NCI-H211 tumor spheroids, viability percent test/control for [2H]c1nc(C)nc([2H])c1-c1cc(NC[C@@H](C)c2cccc3c(C(=O)NC)ccnc23)ncn1 + COc1cc2c(cc1O)CCNC21CSC2c3c(OC(C)=O)c(C)c4c(c3C(COC1=O)N1C(O)C3Cc5cc(C)c(OC)c(O)c5C(C21)N3C)OCO4
Result block: 0.21

Query block: Notebook: pull reported viability, T/C for NCI-H211 tumor spheroids, viability percent test/control, entry COc1cc(C)[nH]c(=O)c1CN1CCc2c(Cl)cc(C(OC)C3COC3)c(Cl)c2C1=O (stereo not given) + COc1cc2c(cc1O)CCNC21CSC2c3c(OC(C)=O)c(C)c4c(c3C(COC1=O)N1C(O)C3Cc5cc(C)c(OC)c(O)c5C(C21)N3C)OCO4
Result block: 0.11

Query block: Any idea what viability, T/C came out for CC(C)n1c(=O)n(C)c2cnc3cc(F)c(-c4ccc(OCCCN5CCCCC5)nc4)cc3c21 + COc1cc2c(cc1O)CCNC21CSC2c3c(OC(C)=O)c(C)c4c(c3C(COC1=O)N1C(O)C3Cc5cc(C)c(OC)c(O)c5C(C21)N3C)OCO4 on NCI-H211 tumor spheroids, viability percent test/control?
Result block: 0.17

Query block: Value wanted: viability, T/C (NCI-H211 tumor spheroids, viability percent test/control) of entry CC(C)n1c(=O)n(C)c2cnc3cc(F)c(-c4ccc(OCCCN5CCCCC5)nc4)cc3c21 + CC[C@@]1(O)C(=O)OCc2c1cc1n(c2=O)Cc2cc3c(CN(C)C)c(O)ccc3nc2-1
Result block: 22
